- Tested on: P388 leukemia ip, CD2F1 mice, survival T/C
- testMethodNotes: NCI In Vivo Anticancer Drug Screen. Data for tumor model P388 Leukemia (intraperitoneal) in CD2F1 (CDF1) mice
- particulars: endpoint: median survival time; dose: 60.0 mg/kg/injection; schedule: Q01DX005 (ip); vehicle: saline; higher = longer survival
Inconclusive results and toxic doses are left out.
propertyName: T/C

{"compound": "CN1CCC(=NO)CC1", "recordedValue": "95 % of control"}
{"compound": "CCCN(CCC)c1cc(=O)nc2ccccn12", "recordedValue": "100 % of control"}
{"compound": "O=C1NN2CCCN=C2c2ccncc21", "recordedValue": "98 % of control"}
{"compound": "COc1cc2c(c(Cl)c1OC)CCN(C)CC2c1ccccc1 (stereo not given)", "recordedValue": "102 % of control"}
{"compound": "CCN(CC)CCCCCCCCOC(=O)c1cc(OC)c(OC)c(OC)c1", "recordedValue": "99 % of control"}
